Data origin: PubChem BioAssay AID2553

Molecular target: Short transient receptor potential channel 6 (Mus musculus)
Assay: mouse TRPC6 channel inhibitors, primary screen, cell-based, HEK293, membrane potential dye (AID 2553)
Settings: ACh-evoked depolarization, at 10 µM
Hit rate of the full screen: of about 310,000 compounds, about 3,300 (1.1%) were called active.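 The calls were made as follows: active = B-score under library mean minus 3 SD, initial fluorescence not abnormally high, positive integrated signal ratio; inactive = the rest.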 Shown is part of a subset that was picked to be rich in actives.
# valid calls are yes = active, no = inactive; nothing else

# example entries with known answers
CCCCc1nc(NCc2ccccc2)c(C#N)c2c1CCCC2 ... no
COc1ccc(CC(=O)N[C@@H](CCSC)c2nc3ccccc3[nH]2)cc1 ... no
Cc1c(Br)ccc(NC(=O)COc2ccccc2C(N)=O)c1C ... no
CC1CC(C)CN(CCOc2cccc3ccccc23)C1 (stereo not drawn) ... no
Cc1nc(NCCN)c(C#N)c2c1COC(C)(C)C2 ... no

INPUT: GET /call?item= `Cc1cccc(NC(=O)Nc2ccc3c(c2)OCO3)n1` returns the recorded outcome of this test.
OUTPUT: no

INPUT: Let us now turn to CC(C)C(=O)N1CC(=O)Nc2ccc(F)cc2C1c1ccc(F)cc1 (stereo not drawn)
OUTPUT: no

INPUT: Let us now turn to `Cc1ccc(NC(=S)N(CCN2CCCCC2)Cc2ccco2)cc1C`
OUTPUT: no

INPUT: Let us now turn to `CCOC(=O)N1CCN(C(=O)COc2ccc(Br)cc2)CC1`
OUTPUT: no

INPUT: Let us now turn to `CCCCc1nc(NCCN)c(C#N)c2c1CSC(C)(C)C2`
OUTPUT: yes

INPUT: Let us now turn to `CCN(CC)CCCNC(=O)COc1ccc2oc3c(c2c1)CCCC3`
OUTPUT: no

INPUT: Let us now turn to `N=c1c2c3c(sc2ncn1N)CCCCC3`
OUTPUT: no

INPUT: Let us now turn to `N=c1c2c3c(sc2ncn1N)CCCC3`
OUTPUT: no

INPUT: Let us now turn to `CCOC(=O)c1c(/N=C/c2cc(C)ccc2O)sc2c1CCC2`
OUTPUT: no

INPUT: Let us now turn to `N=c1c2c3c(sc2ncn1CCCN1CCOCC1)CCCCC3`
OUTPUT: yes

INPUT: Let us now turn to O=C1CN(C(=O)c2ccccc2F)C(c2ccc(F)cc2)c2cc(F)ccc2N1 (stereo not drawn)
OUTPUT: yes

INPUT: Let us now turn to CCOc1ccc(C2/C(=C(/O)c3ccc4c(c3)CC(C)O4)C(=O)C(=O)N2CCCn2ccnc2)cc1 (stereo not drawn)
OUTPUT: no

INPUT: Let us now turn to CSCCC(NC(=O)c1cc([N+](=O)[O-])cc([N+](=O)[O-])c1)c1nc2ccccc2[nH]1 (stereo not drawn)
OUTPUT: no

INPUT: Let us now turn to `Cc1ccc(NC(=S)N(CCCN2CCC(C)CC2)Cc2ccco2)cc1`
OUTPUT: no

INPUT: Let us now turn to `COc1cc(/C=C/C(=O)N2c3ccccc3Sc3ccc(C(F)(F)F)cc32)cc(OC)c1OC`
OUTPUT: no

INPUT: Let us now turn to Cc1ccc(C(=O)N2CC(=O)Nc3ccc(F)cc3C2c2ccc(F)cc2)cc1 (stereo not drawn)
OUTPUT: no

INPUT: Let us now turn to COc1ccc(NC(=S)N2N=CCC2c2ccccc2)cc1 (stereo not drawn)
OUTPUT: no

INPUT: Let us now turn to `Cc1ccccc1CSc1nnc(CCCCCNC(=O)OC(C)(C)C)o1`
OUTPUT: no
